# credit: patent US11459334B2

Reported half-life at 1 μM values for a set of molecules
test: Metabolic stability evaluation, rat liver microsome experiment; assay type: in vitro ADME; settings: SD, rat liver microsomes, pH 7.4, 1 μM compound, 0.5 mg/mL protein, read-out: T½ rat liver microsome experiment
Measured property: half-life at 1 μM (h)

Structure smiles string	Quantitative result
[2H]C1([2H])N(c2ncc([C@](C)(N)c3ccc(F)cc3)cn2)C([2H])([2H])C([2H])([2H])N(c2ncnn3cc(-c4cnn(C)c4)cc23)C1([2H])[2H]	0.857
[2H]C([2H])([2H])n1cc(-c2cc3c(N4CCN(c5ncc([C@@](N)(c6ccc(F)cc6)C([2H])([2H])[2H])cn5)CC4)ncnn3c2)cn1	1.48
[2H]C([2H])([2H])n1cc(-c2cc3c(N4CCN(c5ncc([C@](N)(c6ccc(F)cc6)C([2H])([2H])[2H])cn5)CC4)ncnn3c2)cn1	0.622
[2H]C1([2H])N(c2ncc([C@@](N)(c3ccc(F)cc3)C([2H])([2H])[2H])cn2)C([2H])([2H])C([2H])([2H])N(c2ncnn3cc(-c4cnn(C)c4)cc23)C1([2H])[2H]	1.49
[2H]C1([2H])N(c2ncc([C@@](C)(N)c3ccc(F)cc3)cn2)C([2H])([2H])C([2H])([2H])N(c2ncnn3cc(-c4cnn(C)c4)cc23)C1([2H])[2H]	1.35

----------
experiment: Metabolic stability evaluation, human liver microsome experiment; type: in vitro ADME; settings: human liver microsomes, pH 7.4, 1 μM compound, 0.5 mg/mL protein, read-out: T½ human liver microsome experiment
Measured property: half-life at 1 μM (h)

Compound	Measured property	Quantitative result
[2H]C1([2H])N(c2ncc([C@@](C)(N)c3ccc(F)cc3)cn2)C([2H])([2H])C([2H])([2H])N(c2ncnn3cc(-c4cnn(C)c4)cc23)C1([2H])[2H] [Compound T-4-S]	half-life at 1 μM	1.51
[2H]C1([2H])N(c2ncc([C@@](N)(c3ccc(F)cc3)C([2H])([2H])[2H])cn2)C([2H])([2H])C([2H])([2H])N(c2ncnn3cc(-c4cnn(C)c4)cc23)C1([2H])[2H] [Compound T-6-S]	half-life at 1 μM	1.76
[2H]C([2H])([2H])n1cc(-c2cc3c(N4CCN(c5ncc([C@@](N)(c6ccc(F)cc6)C([2H])([2H])[2H])cn5)CC4)ncnn3c2)cn1 [Compound T-3-S]	half-life at 1 μM	1.78
[2H]C([2H])([2H])n1cc(-c2cc3c(N4CCN(c5ncc([C@](N)(c6ccc(F)cc6)C([2H])([2H])[2H])cn5)CC4)ncnn3c2)cn1 [Compound T-3-R]	half-life at 1 μM	0.855

----------
Assay: Metabolic stability evaluation, human liver microsome experiment
Format: in vitro ADME
Settings: human liver microsomes, pH 7.4, 1 μM compound, 0.5 mg/mL protein, read-out: T½ human liver microsome experiment
Protocol: Microsome experiment: human liver microsome: 0.5 mg/mL, Xenotech; rat liver microsome: 0.5 mg/mL, Xenotech; coenzyme (NADPH/NADH): 1 mM, Sigma Life Science; magnesium chloride: 5 mM, 100 mM phosphate buffer (pH 7.4). […] Data analysis: the peak areas of the corresponding compound and internal standard were detected through the LC-MS/MS system, and the ratio of the peak area of the compound to the internal standard was calculated.

Compound	Unit name	half-life at 1 μM
[2H]C1([2H])N(c2ncc([C@](N)(c3ccc(F)cc3)C([2H])([2H])[2H])cn2)C([2H])([2H])C([2H])([2H])N(c2ncnn3cc(-c4cnn(C)c4)cc23)C1([2H])[2H] [Compound T-6-R]	min	57.3
Cn1cc(-c2cc3c(N4CCN(c5ncc([C@](C)(N)c6ccc(F)cc6)cn5)CC4)ncnn3c2)cn1 [Compound A, reference compound]	min	48.1
[2H]C1([2H])N(c2ncc([C@](C)(N)c3ccc(F)cc3)cn2)C([2H])([2H])C([2H])([2H])N(c2ncnn3cc(-c4cnn(C)c4)cc23)C1([2H])[2H] [Compound T-4-R]	min	53.3
Cn1cc(-c2cc3c(N4CCN(c5ncc([C@@](C)(N)c6ccc(F)cc6)cn5)CC4)ncnn3c2)cn1 [Avapritinib, reference compound]	min	87.6
[2H]C([2H])([2H])n1cc(-c2cc3c(N4CCN(c5ncc([C@@](C)(N)c6ccc(F)cc6)cn5)CC4)ncnn3c2)cn1 [Compound T-1-S]	min	88.6

----------
// microsomal CLint at 1 μM lookup, one value per entry
assay: Metabolic stability evaluation, rat liver microsome experiment; type: in vitro ADME; conditions: SD, rat liver microsomes, pH 7.4, 1 μM compound, 0.5 mg/mL protein, read-out: CL rat liver microsome experiment
Measured property: microsomal CLint at 1 μM (µL/min/mg)

Compound	Measured property	Unit name	Quantitative result
[2H]C1([2H])N(c2ncc([C@@](C)(N)c3ccc(F)cc3)cn2)C([2H])([2H])C([2H])([2H])N(c2ncnn3cc(-c4cnn(C)c4)cc23)C1([2H])[2H]	microsomal CLint at 1 μM	µL/min/mg	17.1
[2H]C1([2H])N(c2ncc([C@@](N)(c3ccc(F)cc3)C([2H])([2H])[2H])cn2)C([2H])([2H])C([2H])([2H])N(c2ncnn3cc(-c4cnn(C)c4)cc23)C1([2H])[2H]	microsomal CLint at 1 μM	µL/min/mg	15.5
Cn1cc(-c2cc3c(N4CCN(c5ncc([C@](C)(N)c6ccc(F)cc6)cn5)CC4)ncnn3c2)cn1 [Compound A, reference compound]	microsomal CLint at 1 μM	µL/min/mg	41.5

----------
assay: Metabolic stability evaluation, human liver microsome experiment; type: in vitro ADME; settings: human liver microsomes, pH 7.4, 1 μM compound, 0.5 mg/mL protein, read-out: CL human liver microsome experiment
Measured property: microsomal CLint at 1 μM

> print(dat)
                                   molecule         measured.property          result
1  [2H]C1([2H])N(c2ncc([C@](C)(N)c3ccc(F)cc3)cn2)C([2H])([2H])C([2H])([2H])N(c2ncnn3cc(-c4cnn(C)c4)cc23)C1([2H])[2H]  microsomal CLint at 1 μM    26 µL/min/mg
2  [2H]C([2H])([2H])n1cc(-c2cc3c(N4CCN(c5ncc([C@@](C)(N)c6ccc(F)cc6)cn5)CC4)ncnn3c2)cn1  microsomal CLint at 1 μM  15.6 µL/min/mg
3  [2H]C1([2H])N(c2ncc([C@@](C)(N)c3ccc(F)cc3)cn2)C([2H])([2H])C([2H])([2H])N(c2ncnn3cc(-c4cnn(C)c4)cc23)C1([2H])[2H]  microsomal CLint at 1 μM  15.3 µL/min/mg
4  Cn1cc(-c2cc3c(N4CCN(c5ncc([C@@](C)(N)c6ccc(F)cc6)cn5)CC4)ncnn3c2)cn1 [Avapritinib, reference compound]  microsomal CLint at 1 μM  15.8 µL/min/mg

----------
Parameter half-life at 1 μM: see the listing below.
test: Metabolic stability evaluation, rat liver microsome experiment; assay type: in vitro ADME; conditions: SD, rat liver microsomes, pH 7.4, 1 μM compound, 0.5 mg/mL protein, read-out: T½ rat liver microsome experiment

Compound	half-life at 1 μM
Cn1cc(-c2cc3c(N4CCN(c5ncc([C@@](C)(N)c6ccc(F)cc6)cn5)CC4)ncnn3c2)cn1 [Avapritinib, reference compound]	56.3 min
[2H]C1([2H])N(c2ncc([C@](N)(c3ccc(F)cc3)C([2H])([2H])[2H])cn2)C([2H])([2H])C([2H])([2H])N(c2ncnn3cc(-c4cnn(C)c4)cc23)C1([2H])[2H] [Compound T-6-R]	35.9 min
Cn1cc(-c2cc3c(N4CCN(c5ncc([C@](C)(N)c6ccc(F)cc6)cn5)CC4)ncnn3c2)cn1 [Compound A, reference compound]	33.4 min

----------
molecular target: Ba/F3 Kit D816V (Homo sapiens, UniProt P10721, D816V, cells depend on it); settings: read-out: Cell IC50 (nM) BaF3/Kit(D816V); 72 hours, CTG
Sequence (P10721 whole entry D816V): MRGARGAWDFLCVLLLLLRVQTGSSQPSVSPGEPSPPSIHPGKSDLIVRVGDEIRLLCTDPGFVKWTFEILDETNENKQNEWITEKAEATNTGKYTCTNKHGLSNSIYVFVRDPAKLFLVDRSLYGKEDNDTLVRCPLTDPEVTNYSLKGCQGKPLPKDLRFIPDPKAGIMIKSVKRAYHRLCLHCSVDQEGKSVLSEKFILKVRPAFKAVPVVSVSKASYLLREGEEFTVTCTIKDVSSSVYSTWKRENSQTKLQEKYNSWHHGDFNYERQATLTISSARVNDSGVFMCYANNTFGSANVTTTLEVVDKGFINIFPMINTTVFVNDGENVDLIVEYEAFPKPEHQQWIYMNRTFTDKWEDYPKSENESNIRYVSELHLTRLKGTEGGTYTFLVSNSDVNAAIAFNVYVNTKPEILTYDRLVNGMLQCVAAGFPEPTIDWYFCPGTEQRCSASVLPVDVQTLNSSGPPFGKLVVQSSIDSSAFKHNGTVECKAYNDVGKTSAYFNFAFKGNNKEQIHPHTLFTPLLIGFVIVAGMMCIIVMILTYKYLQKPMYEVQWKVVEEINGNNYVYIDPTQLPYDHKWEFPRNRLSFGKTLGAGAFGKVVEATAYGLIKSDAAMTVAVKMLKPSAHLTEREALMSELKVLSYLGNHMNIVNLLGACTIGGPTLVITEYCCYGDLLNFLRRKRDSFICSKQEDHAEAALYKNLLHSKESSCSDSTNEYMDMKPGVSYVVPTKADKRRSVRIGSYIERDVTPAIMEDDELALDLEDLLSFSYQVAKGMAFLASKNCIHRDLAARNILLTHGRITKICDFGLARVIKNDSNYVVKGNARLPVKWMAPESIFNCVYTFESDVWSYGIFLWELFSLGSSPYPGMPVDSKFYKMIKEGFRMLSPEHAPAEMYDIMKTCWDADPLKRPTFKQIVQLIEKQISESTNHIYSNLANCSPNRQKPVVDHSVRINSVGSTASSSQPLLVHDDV
GI50 reference

Compound	GI50
[2H]C1([2H])N(c2ncc([C@@](C)(N)c3ccc(F)cc3)cn2)C([2H])([2H])C([2H])([2H])N(c2ncnn3cc(-c4cnn(C)c4)cc23)C1([2H])[2H] [Compound T-4-S]	1 to 50 nM
[2H]C([2H])([2H])[C@](N)(c1ccc(F)cc1)c1cnc(N2CCN(c3ncnn4cc(-c5cnn(C)c5)cc34)CC2)nc1 [Compound T-2-S]	1 to 50 nM
[2H]C1([2H])N(c2ncc([C@@](N)(c3ccc(F)cc3)C([2H])([2H])[2H])cn2)C([2H])([2H])C([2H])([2H])N(c2ncnn3cc(-c4cnn(C)c4)cc23)C1([2H])[2H] [Compound T-6-S]	1 to 50 nM

----------
experiment: Metabolic stability evaluation, rat liver microsome experiment; assay type: in vitro ADME; details: SD, rat liver microsomes, pH 7.4, 1 μM compound, 0.5 mg/mL protein, read-out: CL rat liver microsome experiment
microsomal CLint at 1 μM values by entry
Measured property: microsomal CLint at 1 μM

Compound	Measured property	Result
Cn1cc(-c2cc3c(N4CCN(c5ncc([C@@](C)(N)c6ccc(F)cc6)cn5)CC4)ncnn3c2)cn1 [Avapritinib, reference compound]	microsomal CLint at 1 μM	24.6 µL/min/mg
[2H]C1([2H])N(c2ncc([C@](N)(c3ccc(F)cc3)C([2H])([2H])[2H])cn2)C([2H])([2H])C([2H])([2H])N(c2ncnn3cc(-c4cnn(C)c4)cc23)C1([2H])[2H] [Compound T-6-R]	microsomal CLint at 1 μM	38.6 µL/min/mg
[2H]C1([2H])N(c2ncc([C@](C)(N)c3ccc(F)cc3)cn2)C([2H])([2H])C([2H])([2H])N(c2ncnn3cc(-c4cnn(C)c4)cc23)C1([2H])[2H] [Compound T-4-R]	microsomal CLint at 1 μM	27 µL/min/mg
[2H]C([2H])([2H])n1cc(-c2cc3c(N4CCN(c5ncc([C@](N)(c6ccc(F)cc6)C([2H])([2H])[2H])cn5)CC4)ncnn3c2)cn1 [Compound T-3-R]	microsomal CLint at 1 μM	37.2 µL/min/mg
[2H]C([2H])([2H])n1cc(-c2cc3c(N4CCN(c5ncc([C@@](N)(c6ccc(F)cc6)C([2H])([2H])[2H])cn5)CC4)ncnn3c2)cn1 [Compound T-3-S]	microsomal CLint at 1 μM	15.6 µL/min/mg
